# credit: paper doi:10.1101/2025.06.05.658000

testedSystem: HLA-DR (DRA1*01:01 / DRB1*12:01), soluble knob-into-hole Fc heterodimer (human)
testDescription: ELISA
measuredAttribute: Ki (µM)

[[record]]
binder = "KPVSKMRMATPLLMQALPM [human CLIP peptide, unlabelled competitor]"
measuredattribute = "Ki"
valueunits = "µM"
observedresult = 0.0378

